Target: RORgT (Homo sapiens)
Construct: Gal4 (fusion partner); expressed in transfected cells; host or cells: engineered Jurkat cells (Jurkat pEx/Gal/hRORγ CLBD/HYG pG5luc/blast)
Sequence (P51449 267-516): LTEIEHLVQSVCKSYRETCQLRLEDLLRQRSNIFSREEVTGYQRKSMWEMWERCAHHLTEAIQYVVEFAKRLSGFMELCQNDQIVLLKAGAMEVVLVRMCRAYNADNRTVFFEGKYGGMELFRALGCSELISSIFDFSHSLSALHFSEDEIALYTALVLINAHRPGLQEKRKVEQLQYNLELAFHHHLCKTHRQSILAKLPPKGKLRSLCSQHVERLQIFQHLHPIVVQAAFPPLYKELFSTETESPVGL
Test: RORgT Gal4 Luciferase Reporter Gene Assay
Type: cell-based
Details: engineered Jurkat cells overexpressing RORgT (LBD or full length) with Gal4 Luc reporter; 18 hours at 37° C.; 40 μM to 0.67 nM; read-out: RORg_GAL4 EC50
RESULT_TYPE: pEC50
Lab note: report pEC50 as minus log10 of the concentration in molar units, number only.

Ask | Given the compound CC(C)c1cc(F)cc(Oc2c(Cl)ccc(CNC(=O)C3CCN(S(N)(=O)=O)CC3)c2Cl)c1 , write its reported pEC50.
Reply | 8.00

Ask | Look up pEC50 of CC(C)c1cc(F)cc(Oc2c(Cl)cc(NC(=O)NC3CCCN(S(C)(=O)=O)C3)cc2Cl)c1 (stereo not drawn) and report it.
Reply | 6.49

Ask | Dear colleague, please send me the reported pEC50 for COc1ccc(Oc2c(Cl)ccc(C(=O)NCCc3ncn[nH]3)c2Cl)cc1C(C)C when you can.
Reply | 6.48

Ask | Output pEC50 of CC(C)c1cc(F)cc(Oc2c(Cl)ccc(C(=O)NC(C)c3ccc(S(C)(=O)=O)cc3)c2Cl)c1 (stereo not drawn) [Example 140]
Reply | 8.03

Ask | Using the record for COc1ncc(Oc2c(Cl)ccc(C(=O)N3CCC4(CC3)CN(S(C)(=O)=O)C4)c2Cl)cc1C(C)C , state its measured pEC50.
Reply | 7.21

Ask | Provide only the value of recorded pEC50 for CC(C)c1cc(F)cc(Oc2c(Cl)ccc(C(=O)NCc3cnn(S(C)(=O)=O)c3)c2Cl)c1
Reply | 6.86

Ask | Give pEC50 for COc1ccc(Oc2c(Cl)ccc(CNC(=O)C3CCN(S(=O)(=O)C(C)C)CC3)c2Cl)cc1C(C)C
Reply | 7.62

Ask | Output pEC50 of COc1ccc(Oc2c(Cl)ccc(C(=O)NCC#N)c2Cl)cc1C(C)C
Reply | 6.29

Ask | Please list pEC50 recorded for the compound CCS(=O)(=O)N1CC2(CN(CC(=O)Nc3cc(Cl)c(Oc4ccc(OC)c(C(C)C)c4)c(Cl)c3)C2)C1
Reply | 6.00

Ask | Supply reported pEC50 belonging to this compound: COc1ccc(Oc2c(Cl)ccc(C(=O)N3CCN(C)CC3)c2Cl)cc1C(C)C
Reply | 6.70

Ask | In one line, give reported pEC50 of the entry COc1ccc(Oc2c(Cl)cc(NC(=O)Cc3ccc(S(C)(=O)=O)cc3)cc2Cl)cc1C(C)(C)F .
Reply | 7.85

Ask | Assign pEC50 to the following record: COc1ccc(Oc2c(Cl)cc(N3CC(CNC(=O)CS(C)(=O)=O)OC3=O)cc2Cl)cc1C(C)C (stereo not drawn)
Reply | 6.32

Ask | Note down pEC50 recorded for COc1ccc(Oc2c(Cl)ccc(CNC(=O)CC3CCN(C(=O)C(F)(F)F)CC3)c2Cl)cc1C(C)C
Reply | 6.46

Ask | Retrieve pEC50 measured for CC(C)c1cc(F)cc(Oc2c(Cl)ccc(NC(=O)Cc3ccc(S(C)(=O)=O)cc3)c2Cl)c1 and print it.
Reply | 7.48

Ask | Give a short answer stating reported pEC50 for CC(C)c1cc(F)cc(Oc2c(Cl)ccc(C(=O)NCC3CCN(S(=O)(=O)C(C)C)CC3)c2Cl)c1 .
Reply | 6.46
